# System Tested: Mitogen-activated protein kinase 8 (Homo sapiens)
# Sequence (P45983 whole entry): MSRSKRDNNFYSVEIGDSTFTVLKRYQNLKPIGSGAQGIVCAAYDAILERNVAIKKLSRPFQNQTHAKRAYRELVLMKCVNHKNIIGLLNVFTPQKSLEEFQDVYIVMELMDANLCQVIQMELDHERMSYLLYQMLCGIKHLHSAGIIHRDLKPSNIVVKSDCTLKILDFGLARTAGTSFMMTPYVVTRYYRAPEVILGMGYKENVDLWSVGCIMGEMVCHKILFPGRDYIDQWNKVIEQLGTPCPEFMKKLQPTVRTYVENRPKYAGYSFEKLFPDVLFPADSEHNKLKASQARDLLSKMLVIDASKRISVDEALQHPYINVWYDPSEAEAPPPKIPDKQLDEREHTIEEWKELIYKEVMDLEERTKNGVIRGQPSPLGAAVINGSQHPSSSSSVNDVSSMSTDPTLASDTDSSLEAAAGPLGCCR
# Assay Details: In Vitro Kinase Assay (LanthaScreen Kinase Assay)
Measured Metric: pIC50
// returns pIC50 (minus log10 of molar concentration), number only

// query pIC50 value for entry `O=C(Nc1nnc(Sc2ncc([N+](=O)[O-])s2)s1)c1ccc(F)cc1`
4.08

# query: pIC50 of entry `O=C(O)c1cnc(Sc2nnc(Sc3ncc(C(=O)O)s3)s2)s1`
4.08

Suppose we examine the molecule `Nc1nnc(Sc2ncc([N+](=O)[O-])s2)s1` ; what pIC50 value has been reported?
6.15

Look up pIC50: `O=[N+]([O-])c1cnc(Sc2nnc(Sc3ncc([N+](=O)[O-])s3)s2)s1`
6.10
